Please consider the recorded pIC50 for human cathepsin K (UniProt P43236) in what follows.
pIC50: −log10 of the molar value.

COMPOUND | MEASUREMENT TARGET | pIC50
Cc1nc(-c2ccc(N3CCS(=O)(=O)CC3)cc2)c([C@@H]2CCCC[C@H]2C(=O)NC2(C#N)CC2)o1 [Example 14] | human cathepsin K (UniProt P43236) | 8.97
N#CC1(NC(=O)[C@@H]2CCCC[C@H]2c2oc(-c3nccs3)nc2-c2ccc(N3CCS(=O)(=O)CC3)cc2)CC1 [Example 78] | human cathepsin K (UniProt P43236) | 8.60
N#CC1(NC(=O)[C@@H]2CCCC[C@H]2c2oc(Cc3ccccc3)nc2-c2ccc(N3CCS(=O)(=O)CC3)cc2)CC1 [Example 50] | human cathepsin K (UniProt P43236) | 8.80
Cc1nc(-c2ccc(N3CC(S(C)(=O)=O)C3)cc2)c([C@@H]2CCCC[C@H]2C(=O)NC2(C#N)CC2)s1 [Example 55] | human cathepsin K (UniProt P43236) | 8.38
CC(C#N)NC(=O)[C@@H]1CCCC[C@H]1c1oc(-c2ccc(F)cc2)nc1-c1ccc(N2CCS(=O)(=O)CC2)cc1 (single isomer, unassigned) [Example 121] | human cathepsin K (UniProt P43236) | 7.62
N#CC1(NC(=O)[C@@H]2CCCC[C@H]2c2oc(-c3ccc(F)cc3)nc2-c2ccc(N3CC4CC3CS4(=O)=O)cc2)CC1 (mixture of isomers) [Example 87] | human cathepsin K (UniProt P43236) | 8.39
CC(C)(C)c1nc(-c2ccc(N3CCS(=O)(=O)CC3)cc2)c([C@@H]2CCC(F)(F)C[C@H]2C(=O)NC2(C#N)CC2)o1 [Example 19] | human cathepsin K (UniProt P43236) | 9.27
CC(C)[C@@H](C#N)NC(=O)[C@@H]1CCCC[C@H]1c1oc(-c2ccc(F)cc2)nc1-c1ccc(N2CC[S+]([O-])CC2)cc1 [Example 151] | human cathepsin K (UniProt P43236) | 8.51
CC(C)(c1nc(-c2ccc(N3CCS(=O)(=O)CC3)cc2)c([C@@H]2CCCC[C@H]2C(=O)NC2(C#N)CC2)o1)C(F)(F)F [Example 115] | human cathepsin K (UniProt P43236) | 8.87
CC1(c2nc(-c3ccc(N4CCS(=O)(=O)CC4)cc3)c([C@@H]3CCCC[C@H]3C(=O)NC3(C#N)CC3)o2)CCC(F)(F)CC1 [Example 52] | human cathepsin K (UniProt P43236) | 8.60
CC(C)(C#N)NC(=O)[C@@H]1CCCC[C@H]1c1oc(-c2ccc(F)cc2F)nc1-c1ccc(N2CCS(=O)(=O)CC2)cc1 [Example 43] | human cathepsin K (UniProt P43236) | 7.80
CC(C)(C)c1ccc(-c2nc(-c3ccc(N4CCS(=O)(=O)CC4)cc3)c([C@@H]3CCCC[C@H]3C(=O)NC3(C#N)CC3)o2)cc1 [Example 89] | human cathepsin K (UniProt P43236) | 8.87
C[C@@H](C#N)NC(=O)[C@@H]1CCCC[C@H]1c1oc(-c2ccc(F)cc2)nc1-c1ccc(N2CC[S+]([O-])CC2)cc1 [Example 141] | human cathepsin K (UniProt P43236) | 9.05
N#CC1(NC(=O)[C@@H]2CCCC[C@H]2c2oc(C(F)(F)F)nc2-c2ccc(N3CCS(=O)(=O)CC3)cc2)CC1 [Example 13] | human cathepsin K (UniProt P43236) | 9.34
Cc1nc(-c2ccc(N3CCS(=O)(=O)CC3)cc2)c([C@@H]2CCC(F)(F)C[C@H]2C(=O)NC2(C#N)CC2)s1 [Example 59] | human cathepsin K (UniProt P43236) | 9.29
N#CC1(NC(=O)[C@@H]2CC(F)(F)CC[C@H]2c2oc(-c3ccc(F)cc3)nc2-c2ccc(C(=O)N3CCOCC3)cc2)CC1 [Example 24] | human cathepsin K (UniProt P43236) | 9.17
N#CC1(NC(=O)[C@@H]2CCCC[C@H]2c2oc(-c3cnc(C(F)(F)F)nc3)nc2-c2ccc(N3CCS(=O)(=O)CC3)cc2)CC1 [Example 85] | human cathepsin K (UniProt P43236) | 8.80
N#CC1(NC(=O)[C@@H]2CC(Cl)(Cl)CC[C@H]2c2oc(C(F)(F)C(F)(F)F)nc2-c2ccc(C(=O)N3CCOCC3)cc2)CC1 [Example 154] | human cathepsin K (UniProt P43236) | 9.17
N#CC1(NC(=O)[C@@H]2CCCC[C@H]2c2oc(CC3CCCCC3)nc2-c2ccc(N3CCS(=O)(=O)CC3)cc2)CC1 [Example 51] | human cathepsin K (UniProt P43236) | 8.77
N#CC1(NC(=O)[C@@H]2CCCC[C@H]2c2oc(-c3ccc(F)cc3)nc2-c2ccc(N3CCOCC3)cc2)CC1 [Example 17] | human cathepsin K (UniProt P43236) | 8.03
CC1(C)C(c2nc(-c3ccc(N4CCS(=O)(=O)CC4)cc3)c([C@@H]3CCCC[C@H]3C(=O)NC3(C#N)CC3)o2)C1(C)C [Example 113] | human cathepsin K (UniProt P43236) | 8.38
C[C@H]1CC(F)(F)CC[C@@H]1c1nc(-c2ccc(N3CCS(=O)(=O)CC3)cc2)c([C@@H]2CCCC[C@H]2C(=O)NC2(C#N)CC2)o1 [Example 108] | human cathepsin K (UniProt P43236) | 8.68
N#CC(NC(=O)[C@@H]1CC(F)(F)CC[C@H]1c1oc(C(F)(F)C(F)(F)F)nc1-c1ccc(C(=O)N2CCOCC2)cc1)C1CCOCC1 (single isomer, unassigned) [Example 145] | human cathepsin K (UniProt P43236) | 8.52

---

- MEASUREMENT TARGET: human cathepsin F (Homo sapiens, UniProt Q9UBX1)
Simple rule here: IC50 less than 600 nM is Satisfied, otherwise Not satisfied.

MOLECULE | DISCRETE LABEL
N#C[C@@H](NC(=O)[C@@H]1CCCC[C@H]1c1oc(-c2ccc(F)cc2)nc1-c1ccc(N2CCS(=O)(=O)CC2)cc1)C1CC1 | Satisfied
N#CC1(NC(=O)[C@@H]2CCCC[C@H]2c2oc(C3CC4CCC(C3)C4(F)F)nc2-c2ccc(N3CCS(=O)(=O)CC3)cc2)CC1 (mixture of isomers) | Not satisfied
N#CC1(NC(=O)[C@@H]2CCCC[C@H]2c2oc(C(F)(F)F)nc2-c2ccc(N3CCS(=O)(=O)CC3)cc2)CC1 | Not satisfied
CS(=O)(=O)N1CCN(C(=O)c2ccc(-c3nc(C(F)(F)C(F)(F)F)oc3[C@@H]3CCC(F)(F)C[C@H]3C(=O)NC3(C#N)CC3)cc2)CC1 | Satisfied
N#CC1(NC(=O)[C@@H]2CCCC[C@H]2c2oc(-c3nccs3)nc2-c2ccc(N3CCS(=O)(=O)CC3)cc2)CC1 | Not satisfied
N#CC1(NC(=O)[C@@H]2CCCC[C@H]2c2oc(Cc3ccccc3)nc2-c2ccc(N3CCS(=O)(=O)CC3)cc2)CC1 | Not satisfied

---

- MEASUREMENT TARGET: human cathepsin F (Homo sapiens, UniProt Q9UBX1)
- Sequence (Q9UBX1 271-484): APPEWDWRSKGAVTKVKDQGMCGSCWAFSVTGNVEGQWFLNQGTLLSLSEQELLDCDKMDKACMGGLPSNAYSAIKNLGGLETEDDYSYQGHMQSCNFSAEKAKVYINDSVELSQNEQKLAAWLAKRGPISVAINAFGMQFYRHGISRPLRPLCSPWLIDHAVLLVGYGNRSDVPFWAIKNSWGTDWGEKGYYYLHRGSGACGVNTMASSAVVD
pIC50: −log10 of the molar value.
Hi, to clarify the labels: 1 covers pIC50 from 6 upward, -1 covers anything below 6.

COMPOUND STRING | DISCRETE LABEL
N#CC1(NC(=O)[C@@H]2CCCC[C@H]2c2oc(N3CCC(F)(F)CC3)nc2-c2ccc(N3CCS(=O)(=O)CC3)cc2)CC1 | -1
CC(C)(C)[C@@H](C#N)NC(=O)[C@@H]1CCCC[C@H]1c1oc(-c2ccc(F)cc2)nc1-c1ccc(N2CCS(=O)(=O)CC2)cc1 | -1
Cc1ncc(-c2nc(-c3ccc(N4CCS(=O)(=O)CC4)cc3)c([C@@H]3CCCC[C@H]3C(=O)NC3(C#N)CC3)o2)cn1 | -1
CS(=O)(=O)C1CN(c2ccc(-c3nc(C(F)(F)C(F)(F)F)oc3[C@@H]3CCCC[C@H]3C(=O)NC3(C#N)CC3)cc2)C1 | 1
N#C[C@H](NC(=O)[C@@H]1CCCC[C@H]1c1oc(-c2ccc(F)cc2)nc1-c1ccc(N2CCS(=O)(=O)CC2)cc1)C1CCOCC1 | -1
CC1(C)C(c2nc(-c3ccc(N4CCS(=O)(=O)CC4)cc3)c([C@@H]3CCCC[C@H]3C(=O)NC3(C#N)CC3)o2)C1(C)C | -1
C[C@@H](C#N)NC(=O)[C@@H]1CC(F)(F)CC[C@H]1c1oc(C(F)(F)C(F)(F)F)nc1-c1ccc(C(=O)N2CCOCC2)cc1 | 1
N#CC1(NC(=O)[C@@H]2CCCC[C@H]2c2oc(-c3cccnc3)nc2-c2ccc(N3CCS(=O)(=O)CC3)cc2)CC1 | 1
